These data points were gathered from patent US4432982A.

Below is a list of entries, each paired with its recorded effect of the test compound on enzyme activity in % of the control value.
Test system: phosphodiesterase isolated from cattle heart
Assay Notes: Phosphodiesterase inhibition, radioisotope method with 3H-c-AMP, enzyme isolated from cattle heart
Format: biochemical
Particulars: 1 × 10^-5 mole/lit. test compound, control without inhibitor = 100%, 20 minutes incubation, 10 µM
Procedure: The model experiments were performed by means of phosphodiesterase isolated from animal tissues (rat brain, cattle brain, cattle heart). The enzyme was isolated by the technique of J. Schroder and H. V. Richenberg [Biochem. Biophys. […] The measurement was first carried out without the inhibiting substance and then in the presence of one of the compounds of the general formula (I) as an inhibiting agent, after an incubation period of 20 minutes [N.S. Arch. […]
Counter-ions that a name gives are not always drawn.
Assay Endpoint: effect of the test compound on enzyme activity in % of the control

compound="CC[C@@]12C=C(COC(=O)c3cc(OC)c(OC)c(OC)c3)n3c4c(c5ccc(Br)cc53)CCN(CCC1)[C@H]42 [hydrochloride]" readout_value=21.8%
compound=CC[C@@]12C=C(COC(=O)c3cc(OC)c(OC)c(OC)c3)n3c4c(c5cc(OC)ccc53)CCN(CCC1)[C@H]42 readout_value=40.3%
compound=CC[C@@]12C=C(COC(=O)c3cc(OC)c(OC)c(OC)c3)n3c4c(c5cc(Br)ccc53)CCN(CCC1)[C@H]42 readout_value=61.8%
compound="COc1ccc(Cc2nccc3cc(OC)c(OC)cc23)cc1OC [Papaverine HCl, reference compound]" readout_value=82.7%
